# Lookup of reported kd keyed by entry
Target: T1, CD28-Fc (Homo sapiens, UniProt P10747)
T1 construct: Fc
Test: Biacore multi-cycle kinetics on immobilized CD28-Fc
Assay type: binding
Conditions: Table 3, monomeric VHH clones, CD28-Fc
Please make sure the unit comes right after the number.

Some molecules with known kd results, for comparison:
[[record]]
molecule = "VHH 9B3 (VHH, also called 9B03) VHH: EVQLVESGGGLVQAGESLRLSCAASGSIASIRTMAWYRQAPGSQRELVAAISSGREVYYADSVKGRFTISRDNAKTTVYLQMNSLRPEDTAVYYCVVDMYWQDYWWWGQGTQVTVSS"
endpoint_name = "kd"
readout_value = "7.17e-08 s⁻¹"

[[record]]
molecule = "VHH 9A7 (VHH, also called 9A07) VHH: EVQLVESGGGLVQAGESLRLSCAASGSIASINSMGWYRQAPGSQRELVAAISDRSEKYYADSVKGRFTISRDNAKTTVYLQMNSLRPEDTAVYYCVVDHHHSDWWTWGQGTQVTVSS"
endpoint_name = "kd"
readout_value = "9.78e-06 s⁻¹"

[[record]]
molecule = "VHH 5A3 (VHH, also called 5A03) VHH: EVQLVESGGGLVQAGESLRLSCAASGSIASINSMGWYRQAPGSQRELVAAINEKLLIYYADSVKGRFTISRDNAKTTVYLQMNSLRPEDTAVYYCVVDLYGSDYWDWGQGTQVTVSS"
endpoint_name = "kd"
readout_value = "3.78e-05 s⁻¹"

[[record]]
molecule = "VHH 11G11 (VHH) VHH: EVQLVESGGGLVQAGESLRLSCAASGSIASINTMAWYRQAPGSQRELVAAINSISRTYYADSVKGRFTISRDNAKTTVYLQMNSLRPEDTAVYYCVVDVTKEDYWYWGQGTQVTVSS"
endpoint_name = "kd"
readout_value = "5.77e-06 s⁻¹"


Identify kd associated with the molecule VHH 11E11 (VHH) VHH: EVQLVESGGGLVQAGESLRLSCAASGSIASINSMAWYRQAPGSQRELVAAISNAREVYYADSVKGRFTISRDNAKTTVYLQMNSLRPEDTAVYYCVVDVYFQEYWYWGQGTQVTVSS
1.64e-05 s⁻¹

Input VHH 12A09: affinity matured variant of VHH 2A1, SEQ ID NO: 32 (protein) VHH: EVQLVESGGGLVQAGESLRLSCAASGSIASIKTMAWYRQAPGSQRELVTAIASDNRKYYADSVKGRFTISRDNAKTTVYLQMNSLRPEDTAVYYCVVDVTKEDYWYWGQGTQVTVSS , output reported kd.
3.43e-07 s⁻¹

Return the recorded kd value; entry: VHH 10E1 (VHH, also called 10E01) VHH: EVQLVESGGGLVQAGESLRLSCAASGSIASIKTMAWYRQAPGSQRELVAAINYIKEIYYADSVKGRFTISRDNAKTTVYLQMNSLRPEDTAVYYCVVDVTKEDYWYWGQGTQVTVSS
2.84e-06 s⁻¹
